System: U251 CNS
Assay explanation: NCI-60 one-dose screen, 48 h (100 = growth as untreated, 0 = no growth, -100 = all killed)
Details: 10 µM unless noted
The panel holds about 83,000 compounds, 20% with a hit somewhere; the sample as a whole holds those more often. Calls of active or inactive are those of the source. Rule for the calls: active = growth percent below 10; inactive = the rest.
Outcome measure: growth

Below, 5 compounds whose answers are already recorded.
# Compound, growth
data = [
    ("C=C1C(=O)O[C@@H]2C[C@@H](C)/C=C\\C(=O)[C@](C)(OC(C)=O)C[C@H](OC(=O)/C(C)=C\\C)[C@@H]12", "2.55% (active)"),
    ("CS(=O)(=O)c1ccc(-c2nn(-c3ccccc3)cc2/C=N/NC(=O)c2ccncc2)cc1", "105% (inactive)"),
    ("CCN1CCN(c2cc(C(=O)Nc3nc4ccc(Oc5ccnc(C(=O)NC)c5)cc4s3)cc(C(F)(F)F)c2)CC1", "76.8% (inactive)"),
    ("COc1cc(O)c2c(c1)/C=C/C[C@H](O)[C@H](O)C(=O)/C=C\\C[C@H](C)OC2=O", "34.6% (inactive)"),
    ("Cc1ccc(NC(=O)c2ccc(CN3CCN(C)CC3)c(I)c2)cc1Oc1ccc(-c2[nH]nc3ncnc(N)c23)cc1", "-59.8% (active)"),
]

Which growth reading was recorded for the compound O=C1Nc2ccc(Cl)cc2/C1=C/c1ccc(OCc2ccc(Br)cc2F)cc1 ?
97.4% (inactive)

Which growth reading was recorded for the compound N#Cc1ccc(S(=O)(=O)Nc2ccc(-c3cnc(N)[nH]3)cc2)cc1 ?
98.3% (inactive)

Which growth reading was recorded for the compound COc1ccc([C@@H]2[C@@H](O)C(=O)N2c2cc(OC)c(OC)c(OC)c2)cc1Cl ?
1.75% (active)

Which growth reading was recorded for the compound CNC(=O)c1cc(N2CCc3cc(NC(=O)Nc4ccc(Cl)c(Cl)c4)ccc32)ccn1 ?
70% (inactive)

Which growth reading was recorded for the compound C=CCn1c(SCC(=O)Nc2cccc(C(=O)/C=C/c3cc(OC)c(OC)c(OC)c3)c2)nc2ccccc2c1=O ?
9.44% (active)

====

System: MOLT-4 leukemia
Assay explanation: NCI-60 one-dose screen, 48 h (100 = growth as untreated, 0 = no growth, -100 = all killed)
Details: 10 µM unless noted
Compounds without any hit were thinned out: in the full panel of roughly 83,000, 20% have a hit.
Ranges used to classify growth: bin A = under 20%, bin B = from 20% up to 80%, bin C = 80% and over

Before answering, review these 2 worked examples.
# Molecule, Class label
rows = [
    ("O=C1c2c(c3c4cccnc4[nH]c3c3ccc4ccccc4c23)C(=O)N1CCN1CCNCC1", "bin A"),
    ("COc1cc([C@H]2OC[C@H]3[C@@H]2CO[C@@H]3c2ccc(O)c(OC)c2)ccc1O", "bin C"),
]

Kindly state the category for this molecule: O=C1C[C@@H](c2ccccc2)Oc2c(Cc3ccccc3O)c(O)c(Cc3cc(Cc4cc(Cc5ccccc5O)ccc4O)ccc3O)c(O)c21
bin B

Kindly state the category for this molecule: Cc1cc(Cl)cc(NS(=O)(=O)c2ccc(-c3cnc(C4CC4)o3)cc2)c1
bin B

Kindly state the category for this molecule: CCOC(=O)c1c(Nc2ccccc2)nn2c(-c3ccc(OC)c(OC)c3)ccnc12
bin B

Kindly state the category for this molecule: COc1ccc(/C=C/C(=O)c2nnn(-c3ccc(C(=O)O)cc3)c2C)cc1OC
bin C

Kindly state the category for this molecule: NC(=O)c1c(NC(=O)c2cccc(C(F)(F)F)c2F)sc2c1CCC(=O)C2
bin A

Kindly state the category for this molecule: NC(=O)C(=Cc1ccc(Cl)cc1)C(N)=O
bin B

Kindly state the category for this molecule: C=C1C(=O)O[C@@H]2/C=C(/C)C3=CC(=O)[C@@](C)(C[C@H](OC(=O)/C(C)=C\C)[C@@H]12)O3
bin A

Kindly state the category for this molecule: CS(=O)c1nccc(-c2c(-c3ccc(F)c(OCc4ccccc4)c3)nc3sccn23)n1 (configuration not stated)
bin B

Kindly state the category for this molecule: O=C(NNc1nc2cc(F)c(F)cc2n2cccc12)c1ncccn1
bin A

Kindly state the category for this molecule: COC(=O)[C@@]1(C)CC[C@]2(C)CC[C@]3(C)C(=CC(=O)[C@@H]4[C@@]5(C)Cc6c(n(CC#CCN7CCN(C)CC7)c7ccccc67)C(C)(C)[C@@H]5CC[C@]43C)[C@@H]2C1
bin A

Kindly state the category for this molecule: CCCCCCCCCC[C@@H](C)[C@@H]1CC(=O)N[C@H]([C@@H](C)O)C(=O)N[C@@H](C)C(=O)N[C@H](C)C(=O)N[C@@H](CCC(N)=O)C(=O)N[C@H](Cc2ccc(O)cc2)C(=O)N[C@@H](C(C)CC)C(=O)O1 (some centres not stated)
bin B

Kindly state the category for this molecule: Cc1nn(-c2ccc(Cl)cc2)c(C)c1N=Nc1ccc2oc(=O)ccc2c1
bin C

Kindly state the category for this molecule: O=c1[nH]c2cc(Cl)ccc2n1C1CCN(c2ccc3nnc(Cl)n3n2)CC1
bin C

====

Tested on: A498 renal
Assay explanation: NCI-60 one-dose screen, 48 h (100 = growth as untreated, 0 = no growth, -100 = all killed)
Details: 10 µM unless noted
Procedure: Growth inhibition of the A498 human tumor cell line is measured as a screen for anti-cancer activity. Cells are grown in 96 well plates and exposed to the test compound for 48 hours. Compounds are tested at a single concentration, which is 10^-5 M for most compounds. The reported endpoint is percent growth (GI% or GIPRCNT), where numbers from 0 - 100% represent growth inhibition, and numbers from -100% - 0 represent cell death. For example, a value of 40 represents 60% growth inhibition. […]
The panel holds about 83,000 compounds, 20% with a hit somewhere; the sample as a whole holds those more often.
# growth >= 90% gives true (1), anything below gives false (0)

# Molecule, Study system, Class label
rows = [
    ("COc1cc2c3c(n(CCCNC4CCCCC4)c(=O)c2cc1OC)-c1cc2c(cc1C3=O)OCO2", "A498 renal", "false (0)"),
    ("N#C/C(=C\\c1ccc2ccccc2c1)C(=O)Nc1sc2c(c1C#N)CCC2", "A498 renal", "true (1)"),
    ("COc1ccc(-c2ccc3c4c(cccc24)C(=O)N(N2C(=O)c4cccc5cccc(c45)C2=O)C3=O)cc1", "A498 renal", "true (1)"),
    ("Nc1n[nH]c2cccc(C#Cc3cccc(NC(=O)c4cccc(OC(F)(F)F)c4)c3)c12", "A498 renal", "false (0)"),
    ("CCN(CC)CCCC(C)NCC(=O)NC(c1ccc2c(c1)OCO2)c1cc(Cl)c2cccnc2c1O (configuration not stated)", "A498 renal", "false (0)"),
]

Entry O=C(Nc1ccc(F)cc1)c1cc(-c2ccc(F)cc2F)ccc1O : is its growth no less than 90%?
false (0)

Entry CC1OC(O[C@@H]2[C@H](O)C(CO)OC(O[C@H]3COC(O[C@H]4CC[C@]5(C)[C@H]6CC[C@]78OC[C@@]9(CC[C@](C)(C=O)C[C@H]97)C(=O)C[C@@]8(C)[C@]6(C)CC[C@H]5C4(C)C)[C@@H](O)[C@@H]3O)[C@H]2OC2OC[C@@H](O)[C@@H](O)[C@@H]2O)[C@@H](O)[C@@H](O)[C@H]1O (some centres not stated) : is its growth no less than 90%?
true (1)

Entry Oc1ccccc1-c1nnc(SCc2ccc(O)c3ncccc23)n1-c1ccccc1 : is its growth no less than 90%?
false (0)

Entry O=C(CCCCCCN1CC(=O)N2[C@@H](c3ccccc3)c3[nH]c4ccccc4c3C[C@H]2C1=O)NO : is its growth no less than 90%?
false (0)

Entry N=c1c2cc(-c3ccccc3)oc2ncn1/N=C/c1ccccc1 : is its growth no less than 90%?
false (0)

Entry CC(=O)Nc1ccc(NC(=O)Nc2cccc(-c3nc(-c4ccc(NC(=O)c5cccnc5)cc4Cl)no3)c2)cc1C(F)(F)F : is its growth no less than 90%?
false (0)

Entry O=C1NC(=O)/C(=C/c2ccc(OCc3cc4ccccc4nc3Cl)cc2)S1 : is its growth no less than 90%?
true (1)

Entry CS(=O)c1nccc(-c2c(-c3ccc(F)c(OCc4ccccc4)c3)nc3sccn23)n1 (configuration not stated) : is its growth no less than 90%?
true (1)

Entry Cc1nn(-c2ccccc2)cc1/C=N/Nc1nc(Nc2ccccc2)nc(Nc2ccc(S(N)(=O)=O)cc2)n1 : is its growth no less than 90%?
false (0)

Entry O=C(O)CNS(=O)(=O)c1ccc(Oc2ccc(S(=O)(=O)NCC(=O)O)cc2)cc1 : is its growth no less than 90%?
false (0)

Entry O=C(NNc1nc2cc(F)cc(F)c2n2cccc12)c1ccncn1 : is its growth no less than 90%?
false (0)

====

Test system: T-47D breast
Assay explanation: NCI-60 one-dose screen, 48 h (100 = growth as untreated, 0 = no growth, -100 = all killed)
Details: 10 µM unless noted
This is part of a sample that, as a whole, favours compounds with a hit. Of some 83,000 tested, about 20% had one in any assay. Activity calls are given as the source filed them. The calls were made as follows: active = growth percent below 10; inactive = the rest.
Reported growth values for the following compounds.

Below, 10 compounds whose answers are already recorded.
# Compound, growth
rows = [
    ("CCN(CC)CCN1C(=O)c2c(c3c4cc(Br)ccc4[nH]c3c3ccc4ccccc4c23)C1=O", "-34.5% (active)"),
    ("O=C(COc1cccc2cccnc12)Nc1ccc(C(=O)/C=C/c2ccc(Cl)cc2)cc1", "74.8% (inactive)"),
    ("COc1cccc(/C=C/C(=O)c2ccc(NC(=O)COc3cccc4cccnc34)cc2)c1", "82.9% (inactive)"),
    ("O=C1c2c(O)cc(O)cc2O[C@@H](c2ccc(O)cc2)[C@@H]1c1c(O)cc(O)c2c(=O)cc(-c3ccc(O)c(O)c3)oc12", "105% (inactive)"),
    ("COc1cc(CNC(=O)/C=C/c2ccccc2)ccc1OCC(=O)NO", "99.6% (inactive)"),
    ("O=C(c1ccc(O)cc1)[C@@H]1[C@@H]2CCCN2[C@@]2(C(=O)N(C(=O)c3ccc(F)cc3)c3ccccc32)[C@H]1c1ccc(F)cc1", "89% (inactive)"),
    ("O=c1[nH]c2cc(Cl)ccc2n1C1CCN(c2ccc3nnc(Cl)n3n2)CC1", "86.6% (inactive)"),
    ("O=c1c2ccccc2nc(COc2ccccc2)n1/N=C/C=C/c1ccccc1", "94.6% (inactive)"),
    ("C/C(=C(/C)C1CC1CCN(C(=O)c1ccc([N+](=O)[O-])cc1)S(=O)(=O)c1ccc(C)cc1)C1CCCCC1 (stereo not drawn)", "77.3% (inactive)"),
    ("COc1ccc(/C=C/C(=O)c2nnn(-c3ccc(C(=O)O)cc3)c2C)cc1OC", "96.8% (inactive)"),
]

Which growth reading was recorded for the compound Oc1ccccc1-c1nnc(SCc2ccc(O)c3ncccc23)o1 ?
11.6% (inactive)

Which growth reading was recorded for the compound Cn1ccnc1C(=O)/C=C/c1ccc(C(=O)Nc2ccc(NC(=O)CCNC(=O)c3csc(Br)n3)cc2)cc1 ?
58.9% (inactive)

Which growth reading was recorded for the compound Cc1ccc(/C=C/CC(=O)Nc2ccc(C(=O)Nc3ccc(F)cc3N)cc2)cn1 ?
28.6% (inactive)

Which growth reading was recorded for the compound O=C(NNc1nc2cc(F)c(F)cc2n2cccc12)c1ccncn1 ?
15.1% (inactive)

Which growth reading was recorded for the compound COc1ccc(-c2cc(-c3ccc(Cl)cc3)nc3nc(N)nn23)cc1 ?
91.4% (inactive)

Which growth reading was recorded for the compound CCC(C)[C@H]1OC(=O)[C@H](C(C)C)N(C)C(=O)[C@@H](C(C)C)OC(=O)[C@H](C(C)C)N(C)C(=O)[C@@H](C(C)CC)OC(=O)[C@H](C(C)C)N(C)C1=O (stereo partly drawn) ?
3.65% (active)

Which growth reading was recorded for the compound O=C1[C@H]2Cc3c([nH]c4ccccc34)[C@@H](c3ccc(Cl)cc3)N2C(=O)CN1C1CCN(Cc2c(Cl)cccc2Cl)CC1 ?
84.8% (inactive)

Which growth reading was recorded for the compound C#C[C@]1(O)CC[C@H]2[C@@H]3CC=C4c5sc(Nc6cc(Cl)ccn6)nc5CC[C@]4(C)[C@H]3CC[C@@]21C ?
36.6% (inactive)
